Catalogue of TGI readings, one per entry.
system: U251 CNS; assay: NCI tumour cell line growth inhibition, 48 h
# output: bare number, implied unit µM

Problem: // TGI lookup, key: CCCCCCCCCCCCCCCCNc1ccn(C2CC(OP(=O)(O)OCC3OC(n4cc(CC)c(=O)[nH]c4=O)CC3O)C(CO)O2)c(=O)n1 (stereo not given)
Result: 89.3

Problem: Next record, please: COC1=CC(=O)c2c(cc(COP(=O)(N(C)CCBr)N(C)CCBr)n2C)C1=O
Result: 8.43

Problem: // query: C=C1C(=O)O[C@H]2C/C(C=O)=C\[C@H]3O[C@H]3/C(COC(=O)C(C)C)=C/CC12 (stereo not given in full)
Result: 19.6

Problem: Check c1ccc(-c2cnc3nc4ccccc4nc3n2)cc1 too.
Result: 22.4

---

tested on: HCT-116 colon; experiment: NCI tumour cell line growth inhibition, 48 h
Form field: TGI (one value per entry).

compound: Cc1nc2sc(C(=O)Nc3cccc(Cl)c3C)c(N)c2cc1C(C)O (stereo unspecified)
data value: > 35.7 µM

Problem: Item under review: CNC(C)Cc1ccc(O)cc1 (stereo unspecified) . Reported TGI?
Result: > 100 µM

Problem: Now this one: CCC(=O)OC1=CN2C(=NC(c3ccc(N)cc3)=CC2c2cc(OC)c(OC)c(OC)c2)S1 (stereo unspecified)
Result: 13.1 µM

Problem: Also check C[n+]1c(-c2ccc(/C=N/Nc3ccnc(N/N=C/c4ccc(-c5cn6ccccc6[n+]5C)cc4)n3)cc2)cn2ccccc21
Result: > 100 µM

Problem: And then S=c1[nH]nc(SCc2ccccc2Cl)c2[nH]cnc12 , what is it?
Result: > 100 µM

Problem: Would you kindly repeat that for O=S(=O)(/N=C1/SC(=Nc2ccccc2)N(c2ccccc2)/C1=N/S(=O)(=O)c1ccccc1)c1ccccc1 ?
Result: 38.4 µM

Problem: Try the compound CC(C)(O)CCC(O)C(C)(O)C1CCC2(O)C3=CC(=O)C4(O)CC(O)C(O)CC4(C)C3CCC12C (stereo unspecified) (tested in a mixture with another compound)
Result: > 100 µM

Problem: One more compound: Cc1ccc(C)c2c1CCc1cc3ccccc3nc1-2
Result: > 100 µM

Problem: Please give the result for N[C@H](C(=O)O)[C@@H](Cl)CC(=O)O too.
Result: > 100 µM

Problem: Another compound to look at: CC(=O)NS(=O)(=O)c1ccc(-n2nc(-c3ccccc3)cc2C2=CC(=O)C=CC2=O)cc1
Result: > 100 µM

Problem: Also COC(=O)c1c(C#C[Si](C)(C)C)c(C#C[Si](C)(C)C)c(C#C[Si](C)(C)C)c(C#C[Si](C)(C)C)c1C(=O)OC , if possible.
Result: > 100 µM

Problem: What would you report for c1ccc(CNc2ncnc3n[nH]nc23)cc1 ?
Result: > 100 µM

Problem: Record: COc1cc(S(=O)(=O)N/N=C/c2cc(Br)c(O)c(OC)c2)c(OC)cc1NC(C)=O
Result: > 100 µM

Problem: Further, for O=C1C2=C(c3ccccc31)C(c1ccc(Cl)cc1)NC(=S)N2 (stereo unspecified) ?
Result: 28.3 µM

Problem: Okay, and Cc1[nH]n(-c2ccccc2)c(=O)c1C(=O)c1ccccc1 ?
Result: > 25 µM

Problem: Next up: COc1ccccc1N1C(=O)/C(=C\c2cccc(Oc3ccccc3)c2)S(=O)(=O)C1c1ccccc1 (stereo unspecified)
Result: > 100 µM

Problem: Please do the same for O=C(O)c1oc2cccc3c2c1CCC3 as well.
Result: > 100 µM

Problem: What do you get for O=C(NCCCCNCCCNC(=O)OCc1ccccc1)OCc1ccccc1 ?
Result: 70 µM

---

tested on: A549 NSCLC; experiment: NCI tumour cell line growth inhibition, 48 h; in the data active = GI50 below about 0.43 µM; inactive = the rest
Hi! Could you answer with just one of these? label 1 = active, label 0 = inactive

molecule: Cc1cc(Cl)ccc1NC(=O)NC(C)(C)COC(=O)Nc1cccc(Cl)c1
class name: label 0
//
molecule: Cc1nc2sc(C(=O)Nc3cccc(Cl)c3C)c(N)c2cc1C(C)O (configuration not stated)
class name: label 1
//
molecule: N=C1C(c2nc(-c3ccc(Br)cc3)cs2)=C(O)CN1CC1CCCO1 (configuration not stated)
class name: label 0
//
molecule: CS(=O)(=O)Nc1cc(-c2ccc3ncnc(Nc4cccc(Cl)c4F)c3c2)cnc1Cl
class name: label 0
//
molecule: O=C(Nc1cccc([N+](=O)[O-])c1)c1cc2ccccc2cc1O
class name: label 0

Problem: // return assay outcome for C#CCOc1cccc(Nc2ncc3ncn(C4CCN(C(=O)CCl)C4)c3n2)c1 (configuration not stated)
Result: label 0

Problem: What would you report for N#Cc1c(NCc2ccccc2)nc(NCc2ccccc2)c(C#N)c1-c1cccc(O)c1 ?
Result: label 0

---

Catalogue of TGI values
system: SF-268 CNS; experiment: NCI tumour cell line growth inhibition, 48 h

Example entries begin here.
compound: CSc1ccccc1P(CCP(c1ccccc1SC)c1ccccc1SC)c1ccccc1SC
measured parameter: TGI
data value: > 100 µM
//
compound: CCCC(=O)OC1CC(n2cc(F)c(=O)[nH]c2=O)OC1CO (stereo not given)
measured parameter: TGI
data value: > 10 µM
//
compound: c1ccc(-c2cnc3nc4ccccc4nc3n2)cc1
measured parameter: TGI
data value: 17.8 µM
//
compound: C/C=C/C(=O)[O-].N.N.N.N.N.[Co+3].[O-][Cl+3]([O-])([O-])[O-]
measured parameter: TGI
data value: > 100 µM
//
compound: CCOC(=O)NC(=O)c1cn(C2OC(CO)C(O)C2O)c(=O)[nH]c1=O (stereo not given)
measured parameter: TGI
data value: > 100 µM
//
compound: Cc1nc2sc(C(=O)Nc3cccc(Cl)c3C)c(N)c2cc1C(C)O (stereo not given)
measured parameter: TGI
data value: > 82.2 µM

Problem: Recorded TGI for COC(=O)C[C@H](CCSC)NC(=O)C[C@H](CCSC)NC(=O)C[C@H](CCSC)NC(=O)OC(C)(C)C , please?
Result: 59.2 µM

Problem: Follow-up entry: O=C(Nc1ccc(-c2ccnc(Nc3ccc(N4CCOCC4)cc3)n2)cc1)C1CCCN1 (stereo not given)
Result: 44.8 µM

Problem: Same for C[C@@H]1OCC(O)C([C@H]2OC(c3ccccc3)=N[C@H]2CO)O1 (stereo not given in full)
Result: > 100 µM

Problem: O=c1oc2ccccc2c(O)c1Cc1cccc(Cc2c(O)c3ccccc3oc2=O)c1 , same question.
Result: > 100 µM

Problem: Moving on to the next compound: CC(=O)O[C@H](C[C@H](C(C)C)N(C)C(=O)[C@@H](NC(=O)[C@H]1CCCCN1C)C(C)(C)C)c1nc(C(=O)N[C@@H](Cc2ccccc2)C[C@H](C)C(=O)O)cs1
Result: > 25 µM

Problem: Record: N#Cc1c(-c2ccc(Cl)cc2)cc(-c2nc3ccccc3[nH]2)nc1N
Result: 34.6 µM

Problem: Follow-up entry: CCC1OC(/C(C)=C/C(C)/C=C/C2C(C)C2/C=C/C2OC(CC(=O)O)CC(O)C2O)CC=C1C (stereo not given)
Result: > 50 µM

Problem: Continue with NC1CCCCC1N.O=S(=O)([O-])CCCN1CCN(CCO)CC1.O=S(=O)([O-])CCCN1CCN(CCO)CC1.[Pt+4]
Result: > 78 µM

Problem: Queued: CC1(C)O[C@@H](CP(c2cccc3ccccc23)c2cccc3ccccc23)[C@H](CP(c2cccc3ccccc23)c2cccc3ccccc23)O1
Result: > 100 µM

Problem: Record: COc1ccc(C(C)NNC(=O)c2ccncc2)cc1F (stereo not given)
Result: > 100 µM

---

tested on: UACC-62 melanoma; assay: NCI tumour cell line growth inhibition, 48 h
measured parameter: GI50

Use the examples below as a reference point.
compound: O=c1[nH]cnc2nc(-c3ccc(N(CCCl)CCCl)cc3)[nH]c12
system name: UACC-62 melanoma
GI50: 0.507 µM
--
compound: C(#Cc1ccccc1C#Cc1ccccn1)c1ccccn1
system name: UACC-62 melanoma
GI50: 14.7 µM
--
compound: Cc1nn2c(/C=C3\C(=O)Nc4ccccc43)c(C)nc2s1
system name: UACC-62 melanoma
GI50: 35.5 µM

Problem: # returns recorded GI50 (system: UACC-62 melanoma) for O=c1oc2cc(OS(=O)(=O)c3ccccc3)ccc2c2c1CCCCC2
Result: 4.73 µM

Problem: Field entry: N=C1C(c2nc(-c3ccc(Br)cc3)cs2)=C(O)CN1CC1CCCO1 (stereo not given)
Result: > 100 µM

---

test system: NCI-H226 lung; assay: NCI tumour cell line growth inhibition, 48 h
measured parameter: GI50

compound: CC(=O)NS(=O)(=O)c1ccc(-n2nc(-c3ccccc3)cc2C2=CC(=O)C=CC2=O)cc1
GI50: > 100 µM

compound: N#C/C(=C\c1cccnc1)c1nc2ccccc2o1
GI50: > 100 µM

compound: Cc1nn2c(/C=C3\C(=O)Nc4ccccc43)c(C)nc2s1
GI50: > 100 µM

compound: CCC1OC(/C(C)=C/C(C)/C=C/C2C(C)C2/C=C/C2OC(CC(=O)O)CC(O)C2O)CC=C1C (stereo not drawn)
GI50: > 50 µM

compound: Cc1cc(S(=O)(=O)Nc2nc3cc(-c4ccsc4)sc3c(=O)n2N)c(S)cc1Cl
GI50: 49.7 µM

compound: Cc1nc2sc(C(=O)Nc3cccc(Cl)c3C)c(N)c2cc1C(C)O (stereo not drawn)
GI50: 2.21 µM

Problem: What GI50 value was documented for this compound, FC(F)(F)c1cc(NC2=NCCN=C(Nc3cc(C(F)(F)F)cc(C(F)(F)F)c3)SS2)cc(C(F)(F)F)c1 ?
Result: 3.07 µM

Problem: Moving on to S=C(Nc1ccccc1)N1CCn2c1nsc2=Nc1ccccc1
Result: 61.6 µM

Problem: Could you do the same for C=C(C)[C@@H]1CC[C@]2(C)[C@H](CC=C3[C@@H]4[C@H](C)[C@@H](C)CC[C@]4(CO)CC[C@]32C)[C@@]1(C)CCCN , please?
Result: 6.72 µM

Problem: Ok, now C[C@H]1CCC/C=C/[C@@H]2C[C@H](O)C[C@H]2[C@H](O)[C@@H](SC2OC(CO)C(O)C(O)C2O)CC(=O)O1 (stereo partly drawn)
Result: 36.2 µM

Problem: Now the compound N#Cc1c(NCc2ccccc2)nc(NCc2ccccc2)c(C#N)c1-c1cccc(O)c1
Result: 2.91 µM

Problem: Ok, now CCCNc1cccc(-n2ncc3c(N/N=C/c4ccncc4)ncnc32)c1
Result: > 16.5 µM

Problem: For Cc1ccc(/C=C2\CN(Cc3cn(CCNc4ccnc5cc(Cl)ccc45)nn3)C/C(=C\c3ccc(C)cc3)C2=O)cc1 then?
Result: 2.03 µM

Sourced from PubChem BioAssay (NCI)
